# Test system: NHLF cells
# protocol summary: RealTime–Glo MT viability assay
# recorded conditions: 10 µM compound
Known Effect on viability at 10 µM [% reduction] of a selection of compounds
Could you give me the number in % reduction? Just the number is fine.

Some solved entries appear below for comparison.
CC[C@H]1CN2CCc3cc(OC)c(OC)cc3[C@@H]2C[C@@H]1C[C@H]1NCCc2cc(OC)c(OC)cc21 [Emetine]: 25
O=C(CCCCCCC(=O)Nc1ccccc1)NO [Vorinostat]: 24

QUERY: I would be grateful if you could share the reported Effect on viability at 10 µM [% reduction] for COCCOC(=O)C1=C(C)NC(C)=C(C(=O)OC/C=C/c2ccccc2)C1c1cccc([N+](=O)[O-])c1 (centres unmarked) [Cilnidipine] .
RESULT: 15

* * *

# Tested on: COL1 protein in TGF–β1–induced NHLF myofibroblasts
# protocol summary: MS/MS COL1, NHLF myofibroblast reversal assay
# Type: cell-based, human
# recorded conditions: Homo sapiens, Col1; NHLF pre–stimulated 24 h with 5 ng/ml TGF–β1; representative experiment, S7 Fig E; read-out: IC50, reversal of COL1 (curve of a single experiment)
measured parameter: pIC50
pIC50 (log units): -log10 of the concentration in mol/L.

Solved entries:
CCCCC[C@H](O)/C=C/[C@H]1[C@H](O)CC(=O)[C@@H]1CCCCCCC(=O)O: 8.70
C=C[C@@]1(C)CC(=O)[C@]2(O)[C@@]3(C)[C@@H](O)CCC(C)(C)[C@@H]3[C@H](O)[C@H](OC(C)=O)[C@@]2(C)O1: 5.76
Cc1cccc(-c2[nH]c(CNc3ccccc3F)nc2-c2ccc3ncnn3c2)n1: 6.99

QUERY: # get_value(readout='pIC50', item= O=C(CC1NCCCC1O)Cn1cnc2cc(Br)c(Cl)cc2c1=O (stereo not shown) )
RESULT: 7.23

* * *

IC50 values by entry
# Tested on: α–SMA protein in TGF–β1–induced NHLF myofibroblasts
# protocol summary: MS/MS α–SMA, NHLF myofibroblast reversal assay
# Assay type: cell-based, human
# recorded conditions: Homo sapiens; reversal assay: 24 h 5 ng/ml TGF–β1, washed, 72 h compound; normalized to tubulin; read-out: MS / MS α–SMA IC50
Your answer is read as nM, so omit the unit and give the number.

Answered examples (5):
Cc1cccc(-c2[nH]c(CNc3ccccc3F)nc2-c2ccc3ncnn3c2)n1: 73
CCCCC[C@H](O)/C=C/[C@H]1[C@H](O)CC(=O)[C@@H]1C/C=C\CCCC(=O)O [PGE2, prostaglandin E2]: 0.8
CC(C)(C)c1ccc(CN(Cc2cccc(OCC(=O)O)c2)S(=O)(=O)c2cccnc2)cc1: 16
C[C@]12CC[C@H](O)C[C@H]1CC[C@@H]1[C@@H]2C[C@@H](O)[C@]2(C)[C@@H](C3=CC(=O)OC3)CC[C@]12O: 48
O=C(CC1NCCCC1O)Cn1cnc2cc(Br)c(Cl)cc2c1=O (stereo not shown): 102

Next up:
QUERY: Given the compound `CCCCC[C@H](O)/C=C/[C@H]1[C@H](O)CC(=O)[C@@H]1CCCCCCC(=O)O` , what is its reported IC50?
RESULT: 1

* * *

# System: TGF–β1–induced NHLF myofibroblasts
# protocol summary: cells
# Type: cell-based
# recorded conditions: Homo sapiens; reversal assay; impedance at t = 72 h post TGF–β1; n = 2
measured parameter: IC50
Express the reported value numerically, then name its unit.

QUERY: Kindly state the measured IC50 obtained for Cc1cccc(-c2[nH]c(CNc3ccccc3F)nc2-c2ccc3ncnn3c2)n1 [EW–7197] with TGF–β1–induced NHLF myofibroblasts.
RESULT: 47 nM
